Biological target: Delta-type opioid receptor (Homo sapiens, UniProt P41143)
Sequence (P41143 whole entry): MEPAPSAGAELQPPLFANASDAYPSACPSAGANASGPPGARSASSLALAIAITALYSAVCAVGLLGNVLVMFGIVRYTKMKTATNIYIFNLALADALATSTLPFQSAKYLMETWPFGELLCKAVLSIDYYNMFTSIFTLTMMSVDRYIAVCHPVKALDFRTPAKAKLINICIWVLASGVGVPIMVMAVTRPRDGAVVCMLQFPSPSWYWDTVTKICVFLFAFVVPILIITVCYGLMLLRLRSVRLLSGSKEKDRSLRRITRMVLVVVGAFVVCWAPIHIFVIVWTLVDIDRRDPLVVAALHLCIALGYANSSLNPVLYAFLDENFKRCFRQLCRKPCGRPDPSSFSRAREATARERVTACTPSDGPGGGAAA
Test: Compound was evaluated for binding affinity towards Opioid receptor delta 1 by displacing 125 I-deltorphin II
pIC50: −log10 of the molar value. Non-standard residues stand in square brackets, D forms with d. Residues, ends and D or L forms follow the SMILES beside them. Dmt = Cc1cc(O)cc(C)c1C[C@H](N)C(=O)O; Tic = O=C(O)[C@@H]1Cc2ccccc2CN1

| Compound | pIC50 |
| --- | --- |
| Cc1cc(O)cc(C)c1C[C@H](N)C(=O)N1Cc2ccccc2C[C@H]1C(=O)O (H-[Dmt]-[Tic]-OH) | 8.80 |
| COc1cc2c(cc1-c1ccc(F)cc1)C[C@@H](C(=O)O)N(C(=O)C(N)Cc1c(C)cc(O)cc1C)C2 (stereo partly drawn) | 5.94 |
| Cc1cc(O)cc(C)c1C[C@H](N)C(=O)N1Cc2cc(-c3ccc(F)cc3)ccc2C[C@H]1C(=O)O | 8.42 |
| COc1ccc(-c2ccc3c(c2)CN(C(=O)C(N)Cc2c(C)cc(O)cc2C)[C@H](C(=O)O)C3)cc1 (stereo partly drawn) | 8.31 |
| Cc1cc(O)cc(C)c1CC(N)C(=O)N1Cc2cc(O)ccc2C[C@H]1C(=O)O (stereo partly drawn) | 6.63 |
| Cc1cc(O)cc(C)c1C[C@@H](N)C(=O)N1Cc2cc(-c3ccccc3)ccc2C[C@H]1C(=O)O | 6.91 |
| COc1ccc(-c2cc3c(cc2OC)CN(C(=O)C(N)Cc2c(C)cc(O)cc2C)[C@H](C(=O)O)C3)cc1 (stereo partly drawn) | 5.82 |
| COc1c(Br)cc2c(c1Br)CN(C(=O)[C@@H](N)Cc1c(C)cc(O)cc1C)[C@H](C(=O)O)C2 | 8.60 |
